# credit: patent US20130330346A1

Molecular target: T1, Human CXCR2 (human, UniProt P25025 1-360)
T1 sequence: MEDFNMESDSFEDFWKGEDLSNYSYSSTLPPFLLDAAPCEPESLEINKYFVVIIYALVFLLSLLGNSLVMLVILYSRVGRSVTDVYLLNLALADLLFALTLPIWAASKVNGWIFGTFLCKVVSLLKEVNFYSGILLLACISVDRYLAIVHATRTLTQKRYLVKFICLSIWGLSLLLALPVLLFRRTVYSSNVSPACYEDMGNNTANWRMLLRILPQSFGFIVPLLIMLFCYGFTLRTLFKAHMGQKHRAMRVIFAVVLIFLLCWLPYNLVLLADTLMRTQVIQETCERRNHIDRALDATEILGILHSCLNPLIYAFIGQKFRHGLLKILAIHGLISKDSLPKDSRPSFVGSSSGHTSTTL
Test: cell-based or functional assay
parameter_measured: FLIPR IC50 (GRO-α induced calcium release) (µM)
Entry rule: numbers only, all in µM.

Summary for this binder, CXCR20011 (VHH, Bivalent: two VHH joined by a GlySer linker; also called 97A9-35GS-97A9; not shown: C-terminal c-myc tag and His6 tag coded by pAX100) EVQLVESGGGLVQPGGSLRLSCVASGSIVRINTMGWYRQTPGKQRELVADITSGGNINYIDAVKGRFTISRDNTKNTVYLQMNSLKPEDTAVYYCNAEIVVLVGVWTQRARTGNYWGQGTQVTVSSGGGGSGGGGSGGGGSGGGGSGGGGSGGGGSGGGGSEVQLVESGGGLVQPGGSLRLSCVASGSIVRINTMGWYRQTPGKQRELVADITSGGNINYIDAVKGRFTISRDNTKNTVYLQMNSLKPEDTAVYYCNAEIVVLVGVWTQRARTGNYWGQGTQVTVSS : FLIPR IC50 (GRO-α induced calcium release) is 0.137

Others:
Kindly note the recorded FLIPR IC50 (GRO-α induced calcium release) for CXCR20025 (bispecific antibody, Biparatopic: two VHH joined by a GlySer linker; also called 163D2-35GS-127D1; not shown: C-terminal c-myc tag and His6 tag coded by pAX100) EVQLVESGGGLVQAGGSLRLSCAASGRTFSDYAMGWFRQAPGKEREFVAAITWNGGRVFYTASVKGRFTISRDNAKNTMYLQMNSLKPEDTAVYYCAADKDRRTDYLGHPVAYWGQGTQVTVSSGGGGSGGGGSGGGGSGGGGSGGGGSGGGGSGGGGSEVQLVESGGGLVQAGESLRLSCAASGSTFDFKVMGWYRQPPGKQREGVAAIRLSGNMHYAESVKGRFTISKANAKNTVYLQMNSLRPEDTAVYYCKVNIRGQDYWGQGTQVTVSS , which is 0.0122
